tgt: furin, P09958
Sequence (P09958 whole entry): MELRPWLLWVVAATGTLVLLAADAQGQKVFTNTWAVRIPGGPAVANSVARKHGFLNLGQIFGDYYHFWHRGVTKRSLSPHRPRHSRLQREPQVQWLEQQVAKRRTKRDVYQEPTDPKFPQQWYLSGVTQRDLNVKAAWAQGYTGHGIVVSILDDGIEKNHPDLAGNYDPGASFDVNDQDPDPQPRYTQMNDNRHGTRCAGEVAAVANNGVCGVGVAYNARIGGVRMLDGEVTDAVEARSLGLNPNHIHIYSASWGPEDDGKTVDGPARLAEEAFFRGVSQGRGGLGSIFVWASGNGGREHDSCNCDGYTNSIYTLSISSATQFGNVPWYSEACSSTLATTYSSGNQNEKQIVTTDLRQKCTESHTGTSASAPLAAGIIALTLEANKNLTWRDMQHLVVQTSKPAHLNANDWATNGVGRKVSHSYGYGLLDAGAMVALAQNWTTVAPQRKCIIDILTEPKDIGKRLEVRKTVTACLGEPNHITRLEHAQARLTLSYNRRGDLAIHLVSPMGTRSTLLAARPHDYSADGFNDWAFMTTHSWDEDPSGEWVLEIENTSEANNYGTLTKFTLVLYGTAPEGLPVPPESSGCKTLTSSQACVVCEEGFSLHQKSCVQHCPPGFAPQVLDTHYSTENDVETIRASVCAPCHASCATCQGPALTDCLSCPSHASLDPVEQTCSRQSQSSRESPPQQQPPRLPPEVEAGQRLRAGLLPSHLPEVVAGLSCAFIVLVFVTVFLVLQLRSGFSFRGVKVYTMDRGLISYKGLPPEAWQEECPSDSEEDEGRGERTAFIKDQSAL
experiment notes: furin cleavage Z-score vs untreated control; higher = more cleavage, active = 3.5 or more, inactive = 1 or less, 8 variable residues between constant flanks;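 further: purified furin at 1:10 enzyme:substrate in 50 mM HEPES pH 7.5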
experimental context: 7.5 min
The other results are listed elsewhere or left out. No count for the full screen is at hand.
measured endpoint: furin cleavage Z-score
Give the value as a plain number.

Please review the entries below; each comes with its answer.
- sequence content: "CAKYSRSYRYAGNASASA [FS-937]"
  furin cleavage Z-score: -0.221
- sequence content: "CASGGRTKRYAGNASASA [FS-191]"
  furin cleavage Z-score: 8.8
- sequence content: "CANKFRTKRYAGNASASA [FS-695]"
  furin cleavage Z-score: 9.46
- sequence content: "CAMEECSTHLAGNASASA [HC1738]"
  furin cleavage Z-score: 0.958
- sequence content: "CAMDECSQHLAGNASASA [HC1691]"
  furin cleavage Z-score: -1.05
- sequence content: "CASGGPLLCPAGNASASA [HC743]"
  furin cleavage Z-score: 0.483

Which measured furin cleavage Z-score value corresponds to CAEQTTPCSGAGNASASA [HC1982] ?
-1.3
